Compiled from multiple publications: IC50 readings for High affinity nerve growth factor receptor (Homo sapiens).

Completed entries (count: 3):
molecule: Cc1cc(NC(=O)N[C@@H]2c3ccccc3C(C)(C)C[C@H]2O)c(-c2ccccc2)nc1C(N)=O (racemic)
observed-property: IC50
test-value: ≤ 50 nM
//
molecule: Cc1cnc2[nH]cc(Cc3cnc(Nc4cc(C(C)(C)C)n[nH]4)nc3)c2c1
observed-property: IC50
test-value: < 1000 nM
//
molecule: CCNc1ncnc2[nH]cc(C(=O)c3ccc(NC4CCC(F)(F)CC4)nc3Cl)c12
observed-property: IC50
test-value: < 1000 nM

q: Can you look up IC50 on High affinity nerve growth factor receptor (Homo sapiens) for C[C@@H]1CCc2ncc(F)cc2N2CCC[C@@H]2c2ccn3ncc(c3n2)C(=O)N1 (single isomer, unassigned) ?
a: > 1000 nM

---

Note to self: these compounds have IC50 reported for High affinity nerve growth factor receptor (Homo sapiens, UniProt P04629) in various publications.

Some solved entries appear below for comparison.
compound-string: COCCOc1nc(C(F)(F)F)ccc1NC(=O)Nc1c(C)c(-c2cnn(C)c2)nn1-c1ccccc1
IC50: 100 to 1000 nM
--
compound-string: COc1ncnc2[nH]cc(Cc3ccc(NCc4ccc(C(F)(F)F)nc4)nc3F)c12
IC50: ≤ 10000 nM
--
compound-string: COCCOc1cc2nccc(Oc3ccc(NC(=O)c4cn(C)c(=O)n(-c5ccc(F)cc5)c4=O)cc3)c2c2c1OCCO2
IC50: < 50 nM
--
compound-string: COCCN1C[C@@H](NC(=O)Nc2c(Br)c(OC[C@@H](C)O)nn2-c2ccccc2)[C@H](c2ccc(F)cc2)C1
IC50: < 100 nM
--
compound-string: COCCN1C[C@@H](NC(=O)Nc2cc(-c3ccc(S(C)(=O)=O)cc3)nn2C)[C@H](c2ccc(F)c(F)c2)C1
IC50: < 100 nM
--
compound-string: Cc1cccc(-c2cn3ncc4c3nc2NCc2cc(F)cnc2O[C@@H](C)CNC4=O)c1
IC50: > 10000 nM

Now, please, on to the next compound.
q: Which measured IC50 belongs to CC(C)Oc1cc(Nc2nc3c(cc2F)ncn3[C@@H](C)c2ccc(F)cn2)n[nH]1 , tested on High affinity nerve growth factor receptor (Homo sapiens, UniProt P04629)?
a: 3 nM

---

We begin with pIC50 values for High affinity nerve growth factor receptor (Homo sapiens), as collected from the published literature.
pIC50: −log10 of the molar value.

Example molecules with recorded pIC50:
compound-string: O=C(Nc1ccc2c(cnn2CCN2CCCC2)c1)c1coc2c1C(=O)NCC2
test-value: 6.97
//
compound-string: COc1cc2nccc(Oc3ccc(NC(=O)c4cn(C)c(=O)n(-c5ccc(F)cc5)c4=O)c(Cl)c3)c2c2c1OCCO2
test-value: > 7.30

q: // returns reported pIC50 for input CCOc1nn(-c2ccccc2)c(NC(=O)N[C@@H]2CN(c3ccccc3Cl)C[C@H]2c2ccccc2)c1C
a: 6.00 to 7.00

q: I would be grateful if you could share the reported pIC50 for COc1ccc(COc2ccc(Cn3c(N)nc4cc(-c5ccc(F)cc5)cnc43)cc2OC)cn1 .
a: 8.05

q: Please report the recorded pIC50 for COCCN1C[C@@H](NC(=O)Nc2c(C(N)=O)cnn2-c2ccccc2)[C@H](c2ccc(F)c(F)c2)C1 .
a: > 7.00

q: Query: pIC50; subject: CCn1cc(C(=O)Nc2ccc(Oc3ccnc4cc(OCC(C)(C)O)c5c(c34)OCCO5)cc2)c(=O)n(-c2ccc(F)cc2)c1=O
a: > 7.30

---

pIC50: −log10 of the molar value.
For reference, the following pIC50 results for High affinity nerve growth factor receptor (Homo sapiens, UniProt P04629) were taken from various sources.

Consider the reported pIC50 for these compounds:
compound-string: COCCN1C[C@@H](NC(=O)Nc2c(-c3ccccc3)nn(C(C)C)c2C)[C@H](c2cc(F)cc(F)c2)C1
observed-property: pIC50
test-value: 6.00 to 7.00

compound-string: Fc1nc(NCc2cccnc2OCC(F)(F)F)ccc1Cc1c[nH]c2ncncc12
observed-property: pIC50
test-value: ≥ 5.00

compound-string: COCCN1C[C@@H](NC(=O)Nc2c(C)c(-c3cnn(C)c3)nn2-c2ccccc2)[C@H](c2ccc(F)c(Cl)c2)C1
observed-property: pIC50
test-value: > 7.00

compound-string: CCn1c(=O)c(-c2ccccc2)c(NC(=O)N[C@@H]2CN(CCOC)C[C@H]2c2ccc(F)c(F)c2)n1C
observed-property: pIC50
test-value: > 7.00

Now take the following compound into account.
q: So what pIC50 did COCCN1C[C@@H](NC(=O)Nc2oc(C(C)C)nc2-c2ccccc2)[C@H](c2ccccc2)C1 get with High affinity nerve growth factor receptor (Homo sapiens, UniProt P04629)?
a: 6.00 to 7.00

---

Before we begin, note that these pIC50 values for High affinity nerve growth factor receptor (Homo sapiens) originate from several publications.
pIC50: −log10 of the molar value.

Worked examples, 2 molecules total:
compound-string: C[C@H]1CCOc2ccc(F)cc2[C@@H]2CCCN2c2ccc3ncc(C#N)c(c3n2)N1
tested-system: High affinity nerve growth factor receptor (Homo sapiens)
test-value: 6.30 to 7.30

compound-string: C[C@H](Nc1ncc2ncn(-c3cc(C4CC4)[nH]n3)c2n1)c1ccc(F)cn1
tested-system: High affinity nerve growth factor receptor (Homo sapiens)
test-value: 8.30

q: Under High affinity nerve growth factor receptor (Homo sapiens): pIC50 value of COCCN1C[C@@H](NC(=O)Nc2c(C)c(-c3cc(C)n(C)n3)nn2-c2ccccc2)[C@H](c2cc(F)cc(F)c2)C1 ?
a: > 7.00

q: Recall the recorded pIC50 for CCn1cc(C(=O)Nc2cc(F)c(Oc3ccnc4cc(OCCOC)c5c(c34)OCCO5)cc2C(C)C)c(=O)n(-c2ccc(F)cc2)c1=O with High affinity nerve growth factor receptor (Homo sapiens) and state it.
a: 6.30 to 7.30

q: Recall the recorded pIC50 for O=C(NCCCN1CCCC1)c1ccc(/C=C2\Sc3ccccc3N(Cc3ccccc3F)C2=O)cc1 with High affinity nerve growth factor receptor (Homo sapiens) and state it.
a: < 4.70
